Test system: HT29
Assay: cells
Assay type: cell-based
# Lookup of reported HT29 HCR: Air/N2 keyed by entry

Some solved entries appear below for comparison.
- molecule: "CS(=O)(=O)CCC(c1ccsc1[N+](=O)[O-])S(=O)(=O)Oc1ccc(N(CCCl)CCCl)cc1 (stereo not shown)"
  val: ">29"
- molecule: "O=[N+]([O-])c1sccc1C(Cc1ccc(OCCO)nc1)S(=O)(=O)Oc1ccc(N(CCCl)CCCl)cc1 (stereo not shown)"
  val: ">23"
- molecule: "O=[N+]([O-])c1sccc1C(Cc1cn2ccccc2n1)S(=O)(=O)Oc1ccc(N(CCCl)CCCl)cc1 (stereo not shown)"
  val: ">60"

Now for the molecule whose HT29 HCR: Air/N2 we want.
Incoming: Request the reported HT29 HCR: Air/N2 associated with O=[N+]([O-])c1sccc1C(Cc1ccccn1)S(=O)(=O)Oc1ccc(N(CCCl)CCCl)cc1 (stereo not shown)
Outgoing: >2

---

Test system: HT29
Assay: cells
Type: cell-based
Conditions: Homo sapiens, HT-29, 2 h, read-out: 2 hr N2 HT29 IC50
pIC50: −log10 of the molar value.
measured.parameter: pIC50

Incoming: Request the reported pIC50 associated with CS(=O)(=O)N(c1ccc(CC(c2ccsc2[N+](=O)[O-])S(=O)(=O)Oc2ccc(N(CCCl)CCCl)cc2)cn1)S(C)(=O)=O (stereo not drawn)
Outgoing: < 3.52

Incoming: Request the reported pIC50 associated with O=[N+]([O-])c1sccc1C(CCS(=O)(=O)c1ccc(C(F)(F)F)cn1)S(=O)(=O)Oc1ccc(N(CCCl)CCCl)cc1 (stereo not drawn)
Outgoing: < 3.00

---

Test system: HT29
Test: cells
Format: cell-based
Details: Homo sapiens, HT-29, 2 h, read-out: 2 hr N2 HT29 IC50
measured.parameter: IC50

Some solved entries appear below for comparison.
- compound: "CN(C)c1ccc(CC(c2ccsc2[N+](=O)[O-])S(=O)(=O)Oc2ccc(N(CCCl)CCCl)cc2)cn1 (stereo not shown)"
  measured.parameter: "IC50"
  val: "> 300 µM"
- compound: "CN(C)S(=O)(=O)CCC(c1ccsc1[N+](=O)[O-])S(=O)(=O)Oc1ccc(N(CCCl)CCCl)cc1 (stereo not shown)"
  measured.parameter: "IC50"
  val: "> 1000 µM"
- compound: "Nc1cccc(OS(=O)(=O)CCC(c2ccsc2[N+](=O)[O-])S(=O)(=O)Oc2ccc(N(CCCl)CCCl)cc2)c1 (stereo not shown)"
  measured.parameter: "IC50"
  val: "> 1000 µM"

Now for the compound whose IC50 we want.
Incoming: Request the reported IC50 associated with O=[N+]([O-])c1sccc1C(CNS(=O)(=O)c1ccc(F)cc1)S(=O)(=O)Oc1ccc(N(CCCl)CCCl)cc1 (stereo not shown)
Outgoing: > 300 µM
